Assay: Multiple ascending dose study: plasma pharmacokinetics
Type: in vivo
Conditions: human, po, 400 mg, Day 1, 400 mg QD oral, Non-Japanese, read-out: AUC(0-24 h) Median
reported property: AUC(0-t) (ng·h/mL)
Give bare numbers, in ng·h/mL.

Problem: State the recorded AUC(0-t) for this entry: COc1ncc(C)c(-c2ccc3c(c2)[nH]c(=O)c2cnn([C@H]4CCOC4)c23)c1C
Result: 14700

###

Assay: Multiple ascending dose study: plasma pharmacokinetics
Type: in vivo
Conditions: human, po, 200 mg, Day 14, 200 mg QD oral, read-out: AUC(0-inf) GM (% CV)
reported property: AUC(0-inf) (µg·h/mL)
Answers are plain numbers, in µg·h/mL.

Problem: State the recorded AUC(0-inf) for this entry: COc1ncc(C)c(-c2ccc3c(c2)[nH]c(=O)c2cnn([C@H]4CCOC4)c23)c1C
Result: 70.5
